Tested on: immortalized murine embryonic fibroblasts (Mef)
experiment: Pooled negative selection RNAi screening (deep sequencing)
Assay type: cell-based
cond: deep sequencing reads, on dox compared to initial representation
measuredAttribute: Fold depletion in Mef (Fold)

molecule | measuredAttribute | outputUnit | measuredNumber
Ccr1.733: shRNA, SEQ ID NO: 101 (nucleic acid) TGCTGTTGACAGTGAGCGCCTGGATTGACTACAAGTTGAATAGTGAAGCCACAGATGTATTCAACTTGTAGTCAATCCAGATGCCTACTGCCTCGGA | Fold depletion in Mef | Fold | 1.18
Plod3.3138: shRNA, SEQ ID NO: 169 (nucleic acid) TGCTGTTGACAGTGAGCGACTCAGCCTCACTTTCAATAAATAGTGAAGCCACAGATGTATTTATTGAAAGTGAGGCTGAGGTGCCTACTGCCTCGGA | Fold depletion in Mef | Fold | 0.71
Pcna.1186: shRNA, SEQ ID NO: 159 (nucleic acid) TGCTGTTGACAGTGAGCGAATCAATGATCTTGACGCTAAATAGTGAAGCCACAGATGTATTTAGCGTCAAGATCATTGATGTGCCTACTGCCTCGGA | Fold depletion in Mef | Fold | 11.42
Casp1.248: shRNA, SEQ ID NO: 100 (nucleic acid) TGCTGTTGACAGTGAGCGCCAGTGAGTATAGGGACAATAATAGTGAAGCCACAGATGTATTATTGTCCCTATACTCACTGATGCCTACTGCCTCGGA | Fold depletion in Mef | Fold | 3.84
